Taken from paper PMC6835155.

Items are presented alongside their recorded TM Shift LIMK2 (K).
- MEASUREMENT_TARGET: LIMK2KD (Homo sapiens, UniProt P53671)
- Construct: The cDNA coding for LIMK2 residues 330 to 632 was PCR amplified; His6 (N, cleaved yes); made in house; host or cells: baculovirus; Sf9 for virus, TriEx insect cells for expression
- Sequence (P53671 330-632): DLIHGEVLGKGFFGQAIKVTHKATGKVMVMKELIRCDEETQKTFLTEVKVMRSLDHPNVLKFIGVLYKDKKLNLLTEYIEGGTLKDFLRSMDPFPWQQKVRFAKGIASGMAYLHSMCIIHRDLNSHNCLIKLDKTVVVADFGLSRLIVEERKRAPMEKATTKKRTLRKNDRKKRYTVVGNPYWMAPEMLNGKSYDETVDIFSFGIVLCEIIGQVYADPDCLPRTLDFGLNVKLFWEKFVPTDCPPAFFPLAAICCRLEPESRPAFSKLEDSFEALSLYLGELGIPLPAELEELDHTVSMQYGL
- MEASUREMENT_DESCRIPTION: Differential (dynamic) scanning fluorimetry (DSF) assay, LIMK2KD
- Assay type: binding
- STATED_CONDITIONS: LIMK2KD, compound 10 µM, single shot
# number only, unit K dropped from output

The cases that follow already have their TM Shift LIMK2 (K) on record.
# COMPOUND, UNIT_LABEL, TM Shift LIMK2 (K)
rows = [
    ("CNC(=O)c1ccccc1Nc1nc(Nc2ccc(N3CCOCC3)cc2OC)ncc1Cl", "K", 3.3),
    ("COc1cccc(-c2cc(=O)c3ccccc3o2)c1N", "K", -0.3),
]

Now examine the next entry.
// query Recorded TM Shift LIMK2 (K) of Cl.Cl.O=S(=O)(NCCNC/C=C/c1ccc(Br)cc1)c1cccc2cnccc12 [H 89 2HCl] , please.
// result 3.9
